assay: A CellTox Green Cytotoxicity Assay to monitor cytotoxicity in HepG2 cells - 32 hour (AID 1224883); note: nearly all actives have a fitted effect of over 50% in size; note: potency is the fitted concentration of half-maximal effect
experimental context: CellTox Green fluorescence; series mostly up to 76.8 µM
Results filed as inconclusive are left out. Active and inactive are the calls of the source. Calls come from the whole dose curve; as a rule, active = well fitted activation curve with a large enough effect in the repeat runs; inconclusive = weak or mixed curves; inactive = flat fitted curve, though single readings scatter.
measure: Potency

Previously resolved entries follow.
compound=Cc1ccc(C(C)C)cc2c(C)ccc1-2 measure=Potency value_reported=inactive
compound=CC1=CCC(=C(C)C)CC1 measure=Potency value_reported=inactive
compound="CC(C)(C)c1ccc(C(O)CCCN2CCC(C(O)(c3ccccc3)c3ccccc3)CC2)cc1 (stereo not given)" measure=Potency value_reported="5.35 µM (active)"
compound="CCOC(=O)NNc1ccc(N(CC)CC(C)O)nn1 (stereo not given)" measure=Potency value_reported=inactive
compound="CCO[C@@H]1O[C@H](C(COCc2ccccc2)OCc2ccccc2)[C@H](OCc2ccccc2)[C@H]1O (stereo not given in full)" measure=Potency value_reported=inactive

# lookup: Potency of C=CCCC(=O)/C=C/C1C(C)=CCCC1(C)C (stereo not given)
inactive

# lookup: Potency of COc1cc(S(=O)(=O)O)c(C)cc1N=Nc1c(O)ccc2cc(S(=O)(=O)O)ccc12
inactive

# lookup: Potency of CCC(C)(CCC(C)C)C(=O)[O][Sn]([CH3])([CH3])[O]C(=O)C(C)(CC)CCC(C)C (stereo not given)
inactive

# lookup: Potency of O=C(O)c1cc(-c2ccc(F)cc2F)ccc1O
inactive

# lookup: Potency of COc1cc2nc(N3CCN(C(=O)c4ccco4)CC3)nc(N)c2cc1OC
10.4 µM (active)

# lookup: Potency of CC(C)(c1cc(Br)c(OCC(Br)CBr)c(Br)c1)c1cc(Br)c(OCC(Br)CBr)c(Br)c1 (stereo not given)
inactive

# lookup: Potency of CCc1ccc(Br)cc1
inactive

# lookup: Potency of CC(=O)Oc1cc2c(s1)CCN(C(C(=O)C1CC1)c1ccccc1F)C2 (stereo not given)
inactive

# lookup: Potency of CC1(C)CCC[C@]2(C)[C@H]3CCO[C@]3(C)CC[C@@H]12
inactive

# lookup: Potency of O=C1CCCCCCCCCCCCCCCO1
43.6 µM (active)

# lookup: Potency of Cc1ccc(-c2ccccc2)cc1
43.6 µM (active)

# lookup: Potency of Cc1c2ccccc2c(C)c2c1ccc1ccccc12
inactive

---

assay: qHTS assay to identify small molecule antagonists of the sonic hedgehog signaling (Shh) pathway - cell viability counter screen (AID 1259367); note: nearly all actives have a fitted effect of over 55% in size
experimental context: NIH/3T3 Gli1-Luc viability, CellTiter-Fluor, 24 h; series mostly up to 92.4 µM
Results filed as inconclusive are left out. Activity calls are given as the source filed them. Calls follow the shape of the dose curve; as a rule, active = well fitted cell-killing curve with a large enough effect in the repeat runs; inconclusive = weak or mixed curves, or effect the other way; inactive = no such curve, though single readings can be large or run the other way.
Please reply with one of these outcomes: y for active, n for inactive

Sample answers from the record:
compound=Cc1ccc(C(C)C)cc2c(C)ccc1-2 qualitative_label=n
compound=COc1cc(C)ccc1O qualitative_label=n
compound=c1ccc(C(O[C@@H]2CCCN(CCc3ccc4c(c3)OCO4)C2)c2ccccc2)cc1 qualitative_label=n

In this assay, the call recorded for CC(=O)OCC=C(C)C was what?
n

In this assay, the call recorded for CCn1c2ccccc2c2cc([N+](=O)[O-])ccc21 was what?
n

In this assay, the call recorded for COC(=O)c1ccccc1OC was what?
n

---

assay: qHTS assay to identify small molecule agonists of the androgen receptor (AR) signaling pathway in the presence of an antagonist - cell viability counter screen (AID 1259379); note: nearly all actives have a fitted effect of over 25% in size
experimental context: MDA-kb2 viability, CellTiter-Fluor, 16 h; series mostly up to 92.4 µM
Records with an inconclusive call do not appear. The source made the active and inactive calls. Calls follow the shape of the dose curve; as a rule, active = well fitted cell-killing curve with a large enough effect in the repeat runs; inconclusive = weak or mixed curves, or effect the other way; inactive = flat fitted curve, though single readings scatter.
Please reply with one of these outcomes: active, inactive

In this assay, the call recorded for Cc1c(C)c2c(c(C)c1O)CC[C@@](C)(CCC[C@H](C)CCC[C@H](C)CCCC(C)C)O2 was what?
inactive

In this assay, the call recorded for CCCCC(CC)CN1CN(CC(CC)CCCC)CC(C)(N)C1 (stereo not given) was what?
active

In this assay, the call recorded for CCN(CCN)c1cccc(C)c1 was what?
inactive

In this assay, the call recorded for CC(C)CCCCCOC(=O)CCS was what?
inactive

In this assay, the call recorded for Cc1c(F)c(N2CCNC(C)C2)cc2c1c(=O)c(C(=O)O)cn2C1CC1 (stereo not given) was what?
inactive

In this assay, the call recorded for Cc1nc2n(c(=O)c1CCN1CCC(c3noc4cc(F)ccc34)CC1)CCCC2 was what?
inactive

In this assay, the call recorded for CC(=O)c1ccc(C(C)=O)cc1 was what?
inactive

In this assay, the call recorded for CN(C)C(=O)COC(=O)Cc1ccc(OC(=O)c2ccc(N=C(N)N)cc2)cc1 was what?
inactive

In this assay, the call recorded for CCCNCCC was what?
inactive

In this assay, the call recorded for FC(F)(F)c1cccc(Cl)c1 was what?
inactive

In this assay, the call recorded for O=C(O)c1cccc(C(F)(F)F)c1 was what?
inactive

In this assay, the call recorded for Cc1cccc(C(=O)O)c1O was what?
inactive

In this assay, the call recorded for O=C1CCCCCCCCCCCCCCCO1 was what?
inactive
